molecular target: Aromatase (Homo sapiens); test: qHTS assay to identify aromatase inhibitors (AID 743083); details: MCF-7 aro ERE, testosterone-driven ERE luciferase, 24 h; series mostly up to 70.3 µM; further: on the % scale 0 is the no-effect control and ±100 the full control effect; nearly all actives have a fitted effect of over 55% in size
Inconclusive results are not listed. Active and inactive are the calls of the source. The call rests on the fitted dose curve; in most records, active means well fitted inhibition curve with a large enough effect in the repeat runs; inconclusive means weak or mixed curves; inactive means no such curve, though single readings can be large or run the other way.
readout_kind: activity, negative = inhibition

O=C(CCCCC(=O)Nc1c(I)cc(I)c(C(=O)O)c1I)Nc1c(I)cc(I)c(C(=O)O)c1I
inactive
CC(C)NCC(O)c1ccc2ccccc2c1 (configuration not stated)
inactive
O=C(O)CCCCCC(=O)O
inactive
CSc1cnccn1
inactive
N#Cc1cscn1
inactive

**Query** Bench note: what activity, negative = inhibition did CC(=O)CC(=O)Nc1ccc(C)cc1C show?
**Result** inactive

**Query** State the recorded activity, negative = inhibition for this entry: Cc1ccc2c(c1)C(=O)c1ccccc1C2=O
**Result** inactive

====

target: Cytochrome P450 2C19 (Homo sapiens) (UniProt P33261); assay: Cytochrome P450 Family 2 Subfamily C Member 19 (CYP2C19) small molecule antagonists: luciferase reporter qHTS assay (AID 1671197); conditions: P450-Glo CYP2C19 enzyme, luciferin luminescence, 1 h; series mostly up to 115 µM; further: nearly all actives have a fitted effect of over 65% in size
Sequence (P33261 whole entry, looked up): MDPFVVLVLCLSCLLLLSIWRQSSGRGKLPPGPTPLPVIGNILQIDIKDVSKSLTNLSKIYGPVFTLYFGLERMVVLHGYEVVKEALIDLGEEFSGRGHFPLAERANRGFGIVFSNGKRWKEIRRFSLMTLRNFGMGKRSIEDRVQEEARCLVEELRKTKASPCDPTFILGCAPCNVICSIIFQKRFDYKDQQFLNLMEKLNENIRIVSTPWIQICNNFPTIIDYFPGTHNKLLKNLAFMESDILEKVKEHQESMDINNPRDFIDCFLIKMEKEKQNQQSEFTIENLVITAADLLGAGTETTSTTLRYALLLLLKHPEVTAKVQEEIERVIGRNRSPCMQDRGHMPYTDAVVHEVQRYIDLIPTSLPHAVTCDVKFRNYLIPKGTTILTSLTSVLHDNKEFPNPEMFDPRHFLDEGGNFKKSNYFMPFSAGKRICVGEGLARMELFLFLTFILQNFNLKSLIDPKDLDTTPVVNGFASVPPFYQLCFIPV
Results filed as inconclusive are left out. The source made the active and inactive calls. Calls follow the shape of the dose curve; as a rule, active = well fitted inhibition curve with a large enough effect in the repeat runs; inconclusive = weak or mixed curves; inactive = no such curve, though single readings can be large or run the other way.
Parameter call: string, one of active, inactive

**Query** Query: recorded result category for c1ccc(B(c2ccccc2)c2ccccc2)cc1 in this test
**Result** active

**Query** # fetch the recorded call for CC(C)C1OCCN1CCOC(=O)NCCCCCCNC(=O)OCCN1CCOC1C(C)C (stereo not drawn) here
**Result** active

**Query** Outcome? COc1cc(OC)nc(O[C@H](C(=O)O)C(OC)(c2ccccc2)c2ccccc2)n1
**Result** inactive

**Query** Entry C#CCN[C@@H]1CCc2ccccc21 : call = ?
**Result** inactive

**Query** Hi, sorry to bother you, what did the test record for CC(C)OC(=O)CCC(=O)OC(C)C ?
**Result** inactive

**Query** Which outcome was assigned to COc1cc(/C=C/C(N)=O)cc(OC)c1OC in this test?
**Result** inactive

**Query** Assay result, entry CN(C)CCCCl — outcome?
**Result** inactive

**Query** Lab log entry: C=CC/C=C/C — outcome as called in the assay?
**Result** inactive

**Query** Per the assay record, what outcome was assigned to O=C(CCCl)NCCc1ccccc1 ?
**Result** inactive

**Query** Hello, I am checking results. What call was entered for CCC(=O)Oc1ccc2c(c1)CC[C@@H]1[C@@H]2CC[C@@]2(C)[C@H]1C[C@@H](OC(=O)CC)[C@@H]2OC(=O)CC ?
**Result** active

**Query** Test call for this molecule, please: CC(C)=CCC[C@@](C)(O)[C@H]1CC=C(C)CC1
**Result** active

**Query** # lookup: test call for CCCCCCCCCOC(=O)CCCCC(=O)OCCCCCCC
**Result** inactive

**Query** State the result this test recorded for CCOc1ccccc1OCC1CNCCO1 (stereo not drawn) .
**Result** inactive

====

molecular target: Nuclear receptor subfamily 1 group I member 2 (Homo sapiens) (UniProt O75469); assay: CYP3A4 induction through human pregnane X receptor (PXR) by small molecules, qHTS assay (AID 1346984); details: DPX-2 HepG2 PXR, CYP3A4-luciferin luminescence, 24 h; series mostly up to 46.1 µM; further: nearly all actives have a fitted effect of over 40% in size; on activation: on the % scale 0 is the no-effect control and ±100 the full control effect
Results filed as inconclusive are left out. Calls of active or inactive are those of the source. Calls come from the whole dose curve; as a rule, active = well fitted activation curve with a large enough effect in the repeat runs; inconclusive = weak or mixed curves; inactive = no such curve, though single readings can be large or run the other way.
Mark one answer only. Choices: true (active), false (inactive)

**Query** Just curious, what result did C=CCN1C[C@H](C(=O)N(CCCN(C)C)C(=O)NCC)C[C@@H]2c3cccc4[nH]cc(c34)C[C@H]21 get here?
**Result** true

**Query** Name the outcome recorded for N#CCC(=O)NN in the assay.
**Result** false

**Query** Field: outcome | Entry: O=S(=O)(O)c1ccc2c(N=Nc3ccc(S(=O)(=O)O)c4ccccc34)c(O)c(S(=O)(=O)O)cc2c1
**Result** false

**Query** Record lookup: outcome of this test for Cn1nnc2c(C(N)=O)ncn2c1=O ?
**Result** false

**Query** Returns: the outcome recorded for OC[C@H]1O[C@@H](O[C@@H]2[C@@H](CO)O[C@](O)(CO)[C@H]2O)[C@H](O)[C@@H](O)[C@H]1O in this assay.
**Result** false

====

Biological target: Luciferin 4-monooxygenase (Photinus pyralis)
Assay: qHTS assay to identify small molecule inhibitors of firefly luciferase (AID 1224835); further: on the % scale 0 is the no-effect control and ±100 the full control effect; nearly all actives have a fitted effect of over 25% in size
Conditions: purified P. pyralis luciferase, luminescence inhibition; series mostly up to 115 µM
Excerpt: U.S. Tox21 Program National Center for Advancing Translational Sciences [NCATS] NIH Chemical Genomics Center [NCGC] U.S. Environmental Protection Agency [EPA] National Institutes of Environmental Health Sciences [NIEHS] National Toxicology Program [NTP] U.S. Food and Drug Administration [FDA] Tox21 Assay Overview: Firefly (Photinus pyralis) luciferase is one of the most commonly used transcriptional reporters. […]
Inconclusive results are not listed. Activity calls are given as the source filed them. Calls follow the shape of the dose curve; as a rule, active = well fitted inhibition curve with a large enough effect in the repeat runs; inconclusive = weak or mixed curves; inactive = flat fitted curve, though single readings scatter.
readout_kind: activity change, negative = inhibition

Field: example entries. Status: answers known.
Nc1nc(-c2ccccc2)c(Br)c(=O)[nH]1
inactive
Cn1c(=O)c2[nH]c(Br)nc2n(C)c1=O
inactive
CC(C)NCC(O)c1ccc2ccccc2c1 (stereo unspecified)
inactive
COC(=O)c1cccc(Cl)c1
inactive
CC(=O)CCc1ccc(OC(C)=O)cc1
inactive
O=C(Cn1ccnc1[N+](=O)[O-])NCc1ccccc1
inactive
N#Cc1ccccc1O
inactive
CCO[Si](CC)(OCC)OCC
inactive
CCCC(CC)c1ccccc1 (stereo unspecified)
inactive
CCC(C)OC(C)CC (stereo unspecified)
inactive

**Query** Could you share which activity change, negative = inhibition value was measured for CCC(=O)c1c(O)cc(O)cc1O ?
**Result** inactive

**Query** Endpoint output: activity change, negative = inhibition of CC(=O)CC(=O)Nc1ccc(C)cc1C . Value?
**Result** inactive

**Query** Give its activity change, negative = inhibition value. Item: O=C(Cl)c1ccccc1[N+](=O)[O-]
**Result** inactive

**Query** Given the entry CC(O)CC(C)O (stereo unspecified) , report its measured activity change, negative = inhibition.
**Result** inactive

**Query** Reported activity change, negative = inhibition, molecule Cc1ccnc(N)c1 : ____
**Result** inactive

**Query** Field request: activity change, negative = inhibition | item: C=C(C)c1cccc(C(C)(C)N=C=O)c1
**Result** inactive

**Query** Requested read-out: activity change, negative = inhibition. Entry: C#CCN[C@@H]1CCc2ccccc21
**Result** inactive

**Query** Any idea what its activity change, negative = inhibition is? The molecule is CC(=O)CC(=O)OC(C)(C)C
**Result** inactive

**Query** # lookup: activity change, negative = inhibition of Cc1c(NC(=O)c2cccnc2)c(=O)n(-c2ccccc2)n1C
**Result** inactive

**Query** Recorded activity change, negative = inhibition for CCn1cc(C(=O)O)c(=O)c2cnc(N3CCCC3)nc21 , please?
**Result** 2.85% [at 10.5 µM] (inactive)

**Query** Given CC1=C(C(=O)O)N2C(=O)[C@@H](NC(=O)[C@H](N)C3=CCC=CC3)[C@H]2SC1 , state its recorded activity change, negative = inhibition.
**Result** inactive

**Query** Returns the measured activity change, negative = inhibition for the input molecule. Input: OCCN1CCOCC1
**Result** inactive

**Query** Recorded activity change, negative = inhibition for OC1OCCOC1O (stereo unspecified) , please?
**Result** inactive

**Query** I would be grateful if you could share the reported activity change, negative = inhibition for O=C(CCCl)NCCc1ccccc1 .
**Result** inactive

**Query** Give its activity change, negative = inhibition value. Item: COP(=O)(O)OP(=O)(O)OC
**Result** inactive

**Query** Entry O=S(=O)(O)c1ccc2c(N=Nc3ccc(S(=O)(=O)O)c4ccccc34)c(O)c(S(=O)(=O)O)cc2c1 : reported activity change, negative = inhibition = ?
**Result** -3.96% [at 10.5 µM] (inactive)

====

Target: Progesterone receptor (Homo sapiens) (UniProt P06401)
Sequence (P06401 whole entry, looked up): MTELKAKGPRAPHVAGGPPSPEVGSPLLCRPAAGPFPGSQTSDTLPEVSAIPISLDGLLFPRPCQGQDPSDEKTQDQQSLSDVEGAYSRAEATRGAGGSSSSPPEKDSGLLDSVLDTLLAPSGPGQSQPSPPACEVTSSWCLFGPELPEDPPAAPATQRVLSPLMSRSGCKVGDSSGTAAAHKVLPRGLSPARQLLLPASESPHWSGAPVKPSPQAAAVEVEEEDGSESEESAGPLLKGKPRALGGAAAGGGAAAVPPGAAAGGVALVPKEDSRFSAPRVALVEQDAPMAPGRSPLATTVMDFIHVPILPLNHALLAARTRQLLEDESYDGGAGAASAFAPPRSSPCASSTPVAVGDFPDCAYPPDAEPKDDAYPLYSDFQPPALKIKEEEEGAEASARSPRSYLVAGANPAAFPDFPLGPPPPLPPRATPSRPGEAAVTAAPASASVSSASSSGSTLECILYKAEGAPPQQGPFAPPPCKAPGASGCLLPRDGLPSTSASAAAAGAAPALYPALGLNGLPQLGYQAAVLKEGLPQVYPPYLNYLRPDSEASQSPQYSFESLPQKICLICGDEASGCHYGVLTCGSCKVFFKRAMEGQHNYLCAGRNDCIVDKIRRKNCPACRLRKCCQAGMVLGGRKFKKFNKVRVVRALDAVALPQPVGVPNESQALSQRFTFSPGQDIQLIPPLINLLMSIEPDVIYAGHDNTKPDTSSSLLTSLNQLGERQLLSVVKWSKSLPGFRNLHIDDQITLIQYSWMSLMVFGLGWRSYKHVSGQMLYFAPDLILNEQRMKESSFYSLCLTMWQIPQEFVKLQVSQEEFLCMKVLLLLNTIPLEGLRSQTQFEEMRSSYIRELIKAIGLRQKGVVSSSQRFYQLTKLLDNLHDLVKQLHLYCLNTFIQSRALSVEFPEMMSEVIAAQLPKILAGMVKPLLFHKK
Assay: qHTS assay to identify small molecule antagonists of the progesterone receptor (PR) signaling pathway (AID 1346795); further: on the % scale 0 is the no-effect control and ±100 the full control effect
Conditions: PR-UAS-bla HEK293T, beta-lactamase FRET ratio, 16 h; series mostly up to 92.4 µM
Text: National Center for Advancing Translational Sciences [NCATS] NIH Chemical Genomics Center [NCGC] U.S. Environmental Protection Agency [EPA] National Institutes of Environmental Health Sciences [NIEHS] National Toxicology Program [NTP] U.S. Food and Drug Administration [FDA] Progesterone receptor (PR), a nuclear hormone receptor, plays an important role in development, metabolic homeostasis and reproduction. […]
Inconclusive results are not listed. Calls of active or inactive are those of the source. The call rests on the fitted dose curve; in most records, active means well fitted inhibition curve with a large enough effect in the signal ratio in the repeat runs (not every such curve was filed as active); inconclusive means weak or mixed curves; inactive means flat fitted curve, though single readings scatter; the % refers to the signal ratio.
readout_kind: activity change, negative = inhibition

Worked examples follow.
O=C1NC(c2ccccc2)(c2ccccc2)C(=O)N1COP(=O)(O)O
inactive
COC(C)(OC)OC
inactive
[O]=[Mo](=[O])=[O]
2.07% [at 18.9 µM] (inactive)
CCCCCCCCCCCCCBr
inactive
Cc1ccc(N)cc1S(=O)(=O)O
inactive
CC(C)C[C@@H]1[C@H](c2ccccc2)OC(=O)N1CCCN1CCCCCC1
inactive
CC(C)NC(=O)c1ccc(C=O)cc1
inactive
CC1(C)CC(OC(=O)CCCCCCCCC(=O)OC2CC(C)(C)NC(C)(C)C2)CC(C)(C)N1
5.15% [at 18.9 µM] (inactive)
ONc1ccccc1
inactive
CC1CC(=O)CC(C)(C)C1 (stereo not drawn)
inactive

**Query** Any idea what its activity change, negative = inhibition is? The molecule is Cn1nnc2c(C(N)=O)ncn2c1=O
**Result** inactive

**Query** Would you mind telling me what activity change, negative = inhibition value was observed for CC(C)OC(=O)OCOP(=O)(CO[C@H](C)Cn1cnc2c(N)ncnc21)OCOC(=O)OC(C)C ?
**Result** inactive

**Query** Look up activity change, negative = inhibition: Nc1nc(-c2ccccc2)c(Br)c(=O)[nH]1
**Result** inactive
